System: Haemophilus influenzae
assay-text: In vitro antibacterial activity of compound against Haemophilus influenzae ATCC 49247 was determined
Type: functional
Measured MIC, listed per entry for reference.
value-type: MIC (µg/mL)

[[record]]
compound = "CO[C@H]1CC[C@H]2C(=C(C(=O)O)N3C(=O)[C@H]([C@@H](C)O)[C@@H]23)C1"
scale_unit = "µg/mL"
value = 4

[[record]]
compound = "COCC[C@H]1CC[C@H]2C(=C(C(=O)O)N3C(=O)[C@H]([C@@H](C)O)[C@@H]23)C1"
scale_unit = "µg/mL"
value = 4

[[record]]
compound = "C[C@@H](O)[C@H]1C(=O)N2C(C(=O)O)=C3C[C@@H](CCO)CC[C@@H]3[C@H]12"
scale_unit = "µg/mL"
value = 1

[[record]]
compound = "C[C@@H](O)[C@H]1C(=O)N2C(C(=O)O)=C(SCCNC=N)C[C@H]12 [IMIPENEM ANHYDROUS]"
scale_unit = "µg/mL"
value = 1

